- TEST_DETAILS: recombinant UMI read abundance after kanamycin selection (control-corrected) (log10(CPM+1)); higher = more efficient recombination; extreme values may be limits of the assay; sequences stand for … in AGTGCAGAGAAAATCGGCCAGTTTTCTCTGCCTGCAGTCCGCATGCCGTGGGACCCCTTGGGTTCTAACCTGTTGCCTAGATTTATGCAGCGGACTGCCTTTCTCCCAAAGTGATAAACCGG…AGGTTGGTTTCACT; site = the 11-nt donor
MEASURED_PROPERTY: recombinant UMI read abundance (log10)
Answers are plain numbers.

{"SEQUENCE_CODE": "AAGTACGCATGGACCGGTTTTCCCGGTAATCCGTATTTGGG (site AAGCACGCTCC)", "recombinant UMI read abundance (log10)": 0.0289}

Report recombinant UMI read abundance (log10) for each item below.
1. CAACTCACATGGACCGGTTTTCCCGGTAATCCGTATTTGGG (site CAAGTCACTCC)
2. AAAGGGGCATGGACCGGTTTTCCCGGTAATCCGTATTTGGG (site AAAGGGGCTCC)
3. CGCCCTCCATGGACCGGTTTTCCCGGTAATCCGTATTTGTT (site CGCCCTCCTAA)
4. GGGGACTCATGGACCGGTTTTCCCGGTAATCCGTATTTGCA (site GGGGACTCTTG)
5. CACGGCCCATGGACCGGTTTTCCCGGTAATCCGTATTTGTT (site TACGGCCCTAA)

Marked response:
[0.00719, 0, 1.24, 1.89, 0.0279]

###

I'd appreciate it if you could supply recombinant barcode read abundance (log10) values for the items below.
- TEST_DETAILS: recombinant barcode read abundance after kanamycin selection (control-corrected) (log10(CPM+1)); higher = more efficient recombination; sequences stand for … in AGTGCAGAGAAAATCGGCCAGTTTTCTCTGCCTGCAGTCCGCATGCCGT…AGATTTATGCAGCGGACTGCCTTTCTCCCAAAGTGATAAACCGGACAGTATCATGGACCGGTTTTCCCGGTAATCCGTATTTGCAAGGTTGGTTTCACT; site = the 11-nt target
Answers are plain numbers.

Some solved cases for reference:
{"SEQUENCE_CODE": "CGGGCTACTTGGGTTCTAACCTGTTGCGG (site GGGACTACTCC)", "QUANTITATIVE_RESULT": 0.0963}
{"SEQUENCE_CODE": "TAAAGAGCTTGGGTTCTAACCTGTTGCGG (site TATAGAGCTCC)", "QUANTITATIVE_RESULT": 0.236}
{"SEQUENCE_CODE": "AGTAGGCCTTGGGTTCTAACCTGTTGCGG (site AGTAGGCCTCC)", "QUANTITATIVE_RESULT": 1.4}
{"SEQUENCE_CODE": "CATTCACCTTGGGTTCTAACCTGTTGCCT (site CATTCACCTAG)", "QUANTITATIVE_RESULT": 0.39}
{"SEQUENCE_CODE": "TGTCCTGCTTGGGTTCTAACCTGTTGCCT (site CGTCCTGCTAG)", "QUANTITATIVE_RESULT": 0.167}
{"SEQUENCE_CODE": "CGAGGGCCTTGGGTTCTAACCTGTTGCCT (site CGAGGGACTAG)", "QUANTITATIVE_RESULT": 0.049}

Report recombinant barcode read abundance (log10) for each item below.
1. GGCCGGGCTTGGGTTCTAACCTGTTGCCT (site GGCCGGCCTAG)
2. TCTTGGACTTGGGTTCTAACCTGTTGCTC (site TCTTGGACTGA)
3. AGGGTCACTTGGGTTCTAACCTGTTGCCT (site AAGGTCACTAG)
4. AGCCACGCTTGGGTTCTAACCTGTTGCCT (site AGCCACGCTAG)

Marked response:
1. 0.0912
2. 0.165
3. 0.274
4. 1.11

###

I'd appreciate it if you could supply recombinant UMI read abundance (log10) values for the items below.
- TEST_DETAILS: recombinant UMI read abundance after kanamycin selection (control-corrected) (log10(CPM+1)); higher = more efficient recombination; extreme values may be limits of the assay; sequences stand for … in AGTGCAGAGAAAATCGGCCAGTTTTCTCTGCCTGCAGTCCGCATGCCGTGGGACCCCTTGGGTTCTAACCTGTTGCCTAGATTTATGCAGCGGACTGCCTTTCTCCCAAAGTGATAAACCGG…AGGTTGGTTTCACT; site = the 11-nt donor
Answers are plain numbers.

Some solved cases for reference:
{"SEQUENCE_CODE": "GTTGTTCCATGGACCGGTTTTCCCGGTAATCCGTATTTGGT (site GTTGTTCCTTC)", "QUANTITATIVE_RESULT": 0.00361}
{"SEQUENCE_CODE": "ACGTTTACATGGACCGGTTTTCCCGGTAATCCGTATTTGCT (site CCGTTTACTAG)", "QUANTITATIVE_RESULT": 1.53}
{"SEQUENCE_CODE": "CGATCGACATGGACCGGTTTTCCCGGTAATCCGTATTTGCT (site CGATCGACTAG)", "QUANTITATIVE_RESULT": 2.63}
{"SEQUENCE_CODE": "CGTGTAACATGGACCGGTTTTCCCGGTAATCCGTATTTGCG (site CGTGTAACTCG)", "QUANTITATIVE_RESULT": 1.78}

Exam item: Tell us which recombinant UMI read abundance (log10) value is on record for GCGAAGACATGGACCGGTTTTCCCGGTAATCCGTATTTGTT (site GCGAAGACTAA)
Marked response: 2.37

###

- TEST_DETAILS: recombinant UMI read abundance after kanamycin selection (control-corrected) (log10(CPM+1)); higher = more efficient recombination; extreme values may be limits of the assay; sequences stand for … in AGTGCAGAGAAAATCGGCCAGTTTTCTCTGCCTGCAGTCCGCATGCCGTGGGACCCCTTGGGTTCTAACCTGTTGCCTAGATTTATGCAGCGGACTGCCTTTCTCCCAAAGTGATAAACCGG…AGGTTGGTTTCACT; site = the 11-nt donor
I'd appreciate it if you could supply recombinant UMI read abundance (log10) values for the items below.
Answers are plain numbers.

{"SEQUENCE_CODE": "CGATCGACATGGACCGGTTTTCCCGGTAATCCGTATTTGTC (site CGATCGACTGA)", "QUANTITATIVE_RESULT": 1.08}
{"SEQUENCE_CODE": "ATGTAGGCATGGACCGGTTTTCCCGGTAATCCGTATTTGCC (site ATGTAGGCTGT)", "QUANTITATIVE_RESULT": 1.7}
{"SEQUENCE_CODE": "CCTGGTCCATGGACCGGTTTTCCCGGTAATCCGTATTTGCA (site CCGGGTCCTTG)", "QUANTITATIVE_RESULT": 0}
{"SEQUENCE_CODE": "GAAAAACCATGGACCGGTTTTCCCGGTAATCCGTATTTGGT (site GAAAAACCTAC)", "QUANTITATIVE_RESULT": 0}

Please examine the following record next.
Exam item: Tell us which recombinant UMI read abundance (log10) value is on record for CTCCGTACATGGACCGGTTTTCCCGGTAATCCGTATTTGAG (site CTCCATACTCT)
Marked response: 0.649

###

- TEST_DETAILS: recombinant UMI read abundance after kanamycin selection (control-corrected) (log10(CPM+1)); higher = more efficient recombination; extreme values may be limits of the assay; sequences stand for … in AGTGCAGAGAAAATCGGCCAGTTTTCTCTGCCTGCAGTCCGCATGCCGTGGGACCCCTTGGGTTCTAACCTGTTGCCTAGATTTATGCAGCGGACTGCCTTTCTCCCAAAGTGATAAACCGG…AGGTTGGTTTCACT; site = the 11-nt donor
Note that class boundaries on recombinant UMI read abundance (log10) are small value: < 0.004; mid value: ≥ 0.004 and < 0.2; large value: ≥ 0.2

Take a look at these entries with their results.
{"SEQUENCE_CODE": "TACGAATCATGGACCGGTTTTCCCGGTAATCCGTATTTGCG (site TAGGAATCTCG)", "CLASS_ASSIGNMENT": "large value"}
{"SEQUENCE_CODE": "CGGTAACCATGGACCGGTTTTCCCGGTAATCCGTATTTGAT (site CGGGAACCTAT)", "CLASS_ASSIGNMENT": "small value"}
{"SEQUENCE_CODE": "GGCAATCCATGGACCGGTTTTCCCGGTAATCCGTATTTGTA (site GGCAATCCTTG)", "CLASS_ASSIGNMENT": "small value"}
{"SEQUENCE_CODE": "TGTTCCACATGGACCGGTTTTCCCGGTAATCCGTATTTGTA (site TGTTCCACTTA)", "CLASS_ASSIGNMENT": "large value"}
{"SEQUENCE_CODE": "AACCTTCCATGGACCGGTTTTCCCGGTAATCCGTATTTGAT (site AACCGTCCTAT)", "CLASS_ASSIGNMENT": "mid value"}
{"SEQUENCE_CODE": "ACATAGACATGGACCGGTTTTCCCGGTAATCCGTATTTGGG (site ACCTAGACTCC)", "CLASS_ASSIGNMENT": "mid value"}
{"SEQUENCE_CODE": "ACTACAGCATGGACCGGTTTTCCCGGTAATCCGTATTTGAC (site ACTACAGCTGT)", "CLASS_ASSIGNMENT": "large value"}
{"SEQUENCE_CODE": "ATCCAAGCATGGACCGGTTTTCCCGGTAATCCGTATTTGAG (site ATCTAAGCTCT)", "CLASS_ASSIGNMENT": "large value"}
{"SEQUENCE_CODE": "GAGCTCACATGGACCGGTTTTCCCGGTAATCCGTATTTGAT (site GAGGTCACTAT)", "CLASS_ASSIGNMENT": "mid value"}
{"SEQUENCE_CODE": "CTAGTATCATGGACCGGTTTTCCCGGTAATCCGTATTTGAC (site CGAGTGTCTGT)", "CLASS_ASSIGNMENT": "small value"}

Exam item: Please classify: GGCAATCCATGGACCGGTTTTCCCGGTAATCCGTATTTGAC (site GGCAATCCTGT)
Marked response: large value

Exam item: Please classify: GGAGTGGCATGGACCGGTTTTCCCGGTAATCCGTATTTGGT (site GGAGTGGCTAC)
Marked response: large value

Exam item: Please classify: ACATCTGCATGGACCGGTTTTCCCGGTAATCCGTATTTGTG (site ACATCTTCTCA)
Marked response: large value

Exam item: Please classify: GCTTGGACATGGACCGGTTTTCCCGGTAATCCGTATTTGAC (site GATTGGACTGT)
Marked response: small value

Exam item: Please classify: CTGCTACCATGGACCGGTTTTCCCGGTAATCCGTATTTGGT (site CTGCTACCTAG)
Marked response: small value

Exam item: Please classify: GACCCTACATGGACCGGTTTTCCCGGTAATCCGTATTTGAA (site GACCCTACTTT)
Marked response: large value

Exam item: Please classify: TTTGCGGCATGGACCGGTTTTCCCGGTAATCCGTATTTGCT (site TTTGCGGCTAT)
Marked response: mid value

Exam item: Please classify: CACCACACATGGACCGGTTTTCCCGGTAATCCGTATTTGTA (site CCCCACACTTA)
Marked response: large value
